target: Gal3S(b1-4)GlcNAc6S; test: glycan array binding signal (z-score within array); higher = stronger binding; conditions: glycan notation: IUPAC condensed, linker removed
Shown is part of a subset that was picked to be rich in the strongest signals.

Binder | glycan array binding signal (z-score)
FedF (Escherichia coli), Q47212 (protein) MRLKYILIIPLLLISLSVFASTLQVDKSVSYDWINSSASSAQVTGTLLGTGKTNTTQMPALYTWQHQIYNVNFIPSSSGTLTCQAGTILVWKNGRETQYALECRVSIHHSSGSINESQWGQQSQVGFGTACGNKKCRFTGFEISLRIPPNAQTYPLSSGDLKGSFSLTNKEVNWSASIYVPAIAKSYRLDTSITLPDTVNLKQNQATPVYYTFSAPSVSNTITGIPNQNDMPSSNVKLTIGPIQSKTTALYVQPDATGSWYDLSKSITMTVVKSSMLNFKGINAKPGNVTLSVPIVFEIQ | 0.729
Flo1 (Saccharomyces cerevisiae), P32768 (protein) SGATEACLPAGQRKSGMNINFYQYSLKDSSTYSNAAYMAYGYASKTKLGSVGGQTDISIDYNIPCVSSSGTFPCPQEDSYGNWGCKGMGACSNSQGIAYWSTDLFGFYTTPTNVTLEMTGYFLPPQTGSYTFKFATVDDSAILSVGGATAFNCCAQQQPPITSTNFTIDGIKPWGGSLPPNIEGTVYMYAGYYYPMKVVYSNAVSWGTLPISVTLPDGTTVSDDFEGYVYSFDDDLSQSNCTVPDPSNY | -0.289

The reported numbers originate from the supplement of paper PMC8728848.
